assay: OD615 S. cerevisiae growth inhibition, permissive medium, pilot counter-assay, permissive growth control for S. cerevisiae lifespan shortening project (AID 705); conditions: OD615, 24 h, at 10 µM, active compounds read high
// reported growth inhibition for each item listed
Entry rule: numbers only, all in %.

Some solved entries appear below for comparison.
COC(=O)CCC(=O)Nc1ccc(NC(=O)CCC(=O)OC)cc1    -0.195
CCCCC(CC)CNC(=O)c1[nH]c(C)c(C(C)=O)c1C (stereo not drawn)    9.77
COc1ccc2cc(S(=O)(=O)N3CCOCC3)ccc2c1    -11.2
O=C(NCS(=O)(=O)c1ccccc1)c1ccccc1    -15.4
Cc1nc2ccccc2c(=O)n1NC(=O)c1c(O)c2ccccc2n(C)c1=O    -5.41

The recorded growth inhibition for Cn1c(Cn2c(=O)sc3ccccc32)nnc1SCC(=O)NCc1ccco1 is 0.17

The recorded growth inhibition for COc1ccccc1N1CCN(C(=O)C2CCN(S(=O)(=O)c3ccccc3)CC2)CC1 is -0.075

The recorded growth inhibition for O=C(C1CCC(=O)N1Cc1cccnc1)N1CCN(c2ccc(F)cc2)CC1 (stereo not drawn) is -0.085
